molecular target: PA-mST8Sia VI (mouse ST8Sia VI) (Mus musculus, UniProt Q8K4T1); construct: amino acids 26-398 in the case of mouse ST8Sia VI; signal peptide of mouse immunoglobulin IgM (N); made in house; host or cells: COS-7 cells, transient expression of pcDSA-mST8Sia VI; protein recovered from medium on IgG-Sepharose; test: Sialyltransferase activity of PA-mST8Sia VI toward acceptor substrates; assay type: biochemical; details: incorporation with Fetuin taken as 100, substrate 0.5 mg/ml glycolipids, 1 mg/ml glycoproteins, monosaccharides and oligosaccharides
Sequence (Q8K4T1 26-398): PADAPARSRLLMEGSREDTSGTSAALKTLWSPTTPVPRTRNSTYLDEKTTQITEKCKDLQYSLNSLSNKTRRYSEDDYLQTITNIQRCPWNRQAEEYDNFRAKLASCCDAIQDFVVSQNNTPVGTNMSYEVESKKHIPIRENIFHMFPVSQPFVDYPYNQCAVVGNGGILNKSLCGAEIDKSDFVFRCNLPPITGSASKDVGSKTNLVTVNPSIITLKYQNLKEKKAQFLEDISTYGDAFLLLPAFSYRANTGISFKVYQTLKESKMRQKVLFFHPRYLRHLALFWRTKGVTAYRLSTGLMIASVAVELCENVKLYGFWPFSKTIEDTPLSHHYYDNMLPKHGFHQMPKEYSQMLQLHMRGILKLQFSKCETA
Measurement Label: Relative rate (%) Mouse ST8SiaVI

• CC(=O)N[C@H]1C(O)O[C@H](CO)[C@H](O)[C@@H]1O (stereo partly drawn) = 0
• O=C[C@H](O)[C@@H](O)[C@@H](O)[C@H](O)CO = 0
• CC(=O)NC1C(O)CC(OCC2OC(OC3C(CO)OC(O)C(O)C3O)C(O)C(O)C2O)(C(=O)O)OC1C(O)C(O)CO (stereo not drawn) = 91.5
• CC(=O)N[C@H]1[C@H]([C@H](O)[C@H](O)CO)OC(O)(C(=O)O)C[C@@H]1O (stereo partly drawn) = 0
• CC(=O)NC1C(O)OC(CO)C(OC2OC(CO)C(O)C(OC3(C(=O)O)CC(O)C(NC(C)=O)C(C(O)C(O)CO)O3)C2O)C1O (stereo not drawn) = 411
• CC(=O)N[C@H]1[C@H]([C@H](O)[C@H](O)CO)O[C@@](O[C@H]2[C@@H](O)[C@@H](CO)OC(O)[C@@H]2O)(C(=O)O)C[C@@H]1O (stereo partly drawn) = 13.9

----------
molecular target: PA-mST8Sia VI (mouse ST8Sia VI) (Mus musculus, UniProt Q8K4T1); construct: amino acids 26-398 in the case of mouse ST8Sia VI; signal peptide of mouse immunoglobulin IgM (N); made in house; host or cells: COS-7 cells, transient expression of pcDSA-mST8Sia VI; protein recovered from medium on IgG-Sepharose; assay: Sialyltransferase activity of PA-mST8Sia VI toward acceptor substrates; assay type: biochemical; conditions: incorporation with Fetuin taken as 100, substrate 0.5 mg/ml glycolipids, 1 mg/ml glycoproteins, monosaccharides and oligosaccharides
Listed here: items and their measured Relative rate (%) Mouse ST8SiaVI.
Measurement Label: Relative rate (%) Mouse ST8SiaVI

• CC(=O)N[C@@H]1[C@@H](O)[C@H](O[C@@H]2O[C@H](CO[C@]3(C(=O)O)C[C@H](O)[C@@H](NC(C)=O)[C@H]([C@H](O)[C@H](O)CO)O3)[C@H](O)[C@H](O)[C@H]2O)[C@@H](CO)O[C@H]1O = 88.7
• CC(=O)N[C@H]1[C@H]([C@H](O)[C@H](O)CO)O[C@@](OC[C@H]2OC(O)[C@H](O)[C@@H](O)[C@H]2O)(C(=O)O)C[C@@H]1O (stereo partly drawn) = 2.0
• CC(=O)N[C@H]1[C@H]([C@H](O)[C@H](O)CO)O[C@@](O[C@H]2[C@@H](O)[C@@H](CO)O[C@@H](O[C@H]3[C@H](O)[C@@H](O)C(O)O[C@@H]3CO)[C@@H]2O)(C(=O)O)C[C@@H]1O (stereo partly drawn) = 629
